Experiment: soluble on expression in E. coli; label from the status in PepcDB or PDB records
Outcome Measure: soluble on expression in E. coli

Solved cases (5 shown):
MWRELWRVVEKSDIIVQIVDARNPLLFRSKDLDDYVKEVDPAKQILLLVNKADLLKPEQQASWREYFEKENIKVIFWSAIDEVLDPIDEDAVETSNPSTSTHMFVTNKDELIAKFKELGHVSDEPSAKPVMVGMVGYPNVGKSSTINKLAGGKKVSVSATPGKTRHFQTIHIDSQLCLCDCPGLVMPSFSFGRSEMFLNGILPVDQMRDHFGPTSLLLSRVPVHVIEATYSIMLPEMQSPSAINLLNSLAFMRGFMASSGIPDCSRAARLMFKDVVSGKLIWAAAPPGVEQEEFDRISYPDKKTRDIGRVQMEKLAKLQLLEGDELKGSQFDSQHFVGSIGVAHVRDSKALPQTLGTVIPTAPTENNGKKHYKGKKDKLRRIYNE	not soluble
RERVKKEIKDLEKAKDFTEELIEKVKKYKALAREAALSKIGELASEIFAEFTEGKYSEVVVRAEENKVRLFVVWEGKERPLTFLSGGERIALGLAFRLAMSLYLAGEISLLILDEPTPYLDEERRRKLITIMERYLKKIPQVILVSHDEELKDAADHVIRISLENGSSKVEVVS	soluble
MLALGKLLELTLAGREPAEKTQLTVEGVRMRWLAEGALEVRPPQARDNGTDLLLSAGIHGNETAPIELLDELIRSIARGDLKPRARILFLFGNPAAMRLGARYVEQDVNRLFNGRHEQSGGAEALRACELERLAASFFSLPDRYRLHYDLHTAIRGSKIEQFALYPWKEGRQHSRFELARLRAAGISAVLLQNKPSIVFSAYTYEQLGAEAFTLELGKARPFGQNRHVNLAPLRLRLEQIIEGSEPQPDERLEGLQLFSVAREVIKRSDAFTFNLADDVENFSELEKGYVLAEDVSDSRWVVKEEGARIIFPNPKVKNGLRAGIVIVPADADGLGLEHHHHHH	not soluble
MQFSTVASIAAVAAVASAAANVTTATVSQESTTLVTITSCEDHVCSETVSPALVSTATVTVDDVITQYTTWCPLTTEAPKNGTSTAAPVTSTEAPKNTTSAAPTHSVTSYTGAAAKALPAAGALLAGAAALLL	soluble
RVLNLEEGPDAFGDYAREKLFVRARFAARQVLDSYSHDIPEEFMASLRRRFEHDINADEDDDDAMTPEERRKIQERRFALFNKVRLEALYASQAELLRARSERDVDPMIVDEVLFEIDSQIIAAEKSTR	not soluble

State its soluble on expression in E. coli for this sequence: SLIDNPHAQDYWPNRGQMDVQGLAVKYTEAGRAVLSDISFSVEGGLSMGLLGRTGSGKSTLLSALLRLASTDGEISIDGISWNSVPLEKWRKAFGVVPQKVFILTGTFRMNLDPHGRYSDEELWRVADQVGLKSVIEQFPDRLDFQLENGGSVLSHGHKQLMCLARSILSKARILLLDEPSAYLDTITLQVLRKTLKHAFSDCTVILSEAKVEPLLECDSFLVIEGSSVKSYDSIQKLLNEMSDLKQAVSAAD
not soluble
